B1: TPR t1 (parent)
chain: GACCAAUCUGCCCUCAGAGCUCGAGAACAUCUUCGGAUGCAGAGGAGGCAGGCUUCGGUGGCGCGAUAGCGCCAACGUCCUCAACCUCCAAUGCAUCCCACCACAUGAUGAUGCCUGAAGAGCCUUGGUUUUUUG

Variants of: B1
Test: polymerase ribozyme fitness, log enrichment relative to wild type (log ratio); higher = more active; in vitro selection for triplet polymerase activity
outcome-measure: polymerase ribozyme fitness (log ratio)
Returns: the value as a bare number; no unit string appended.

mutant-label: C94U G135U
val: -1.34
--
mutant-label: G69A U116G
val: -4.55
--
mutant-label: C31G U109G C114G
val: -6.93
--
mutant-label: C13G A46U
val: -2.39

// field: polymerase ribozyme fitness (log ratio); key: A41U U129A ; value = -2.58

// field: polymerase ribozyme fitness (log ratio); key: G52A C53A G77A A84U G122A ; value = -2.24

// field: polymerase ribozyme fitness (log ratio); key: C13G U32C A46U C70A C104U ; value = -3.75

// field: polymerase ribozyme fitness (log ratio); key: C12G C22G ; value = -3.07

// field: polymerase ribozyme fitness (log ratio); key: C85U C94U ; value = -1.2

// field: polymerase ribozyme fitness (log ratio); key: G10A C88A A90G G122U U133G ; value = 0.185

// field: polymerase ribozyme fitness (log ratio); key: A83C U126C ; value = -1.26

// field: polymerase ribozyme fitness (log ratio); key: C40U C80G ; value = -5.42
